The measurements presented in this section are drawn from patent US7524964B2.

- assayed.system: human CB1 receptor (Homo sapiens, UniProt P21554)
- Sequence (P21554 whole entry): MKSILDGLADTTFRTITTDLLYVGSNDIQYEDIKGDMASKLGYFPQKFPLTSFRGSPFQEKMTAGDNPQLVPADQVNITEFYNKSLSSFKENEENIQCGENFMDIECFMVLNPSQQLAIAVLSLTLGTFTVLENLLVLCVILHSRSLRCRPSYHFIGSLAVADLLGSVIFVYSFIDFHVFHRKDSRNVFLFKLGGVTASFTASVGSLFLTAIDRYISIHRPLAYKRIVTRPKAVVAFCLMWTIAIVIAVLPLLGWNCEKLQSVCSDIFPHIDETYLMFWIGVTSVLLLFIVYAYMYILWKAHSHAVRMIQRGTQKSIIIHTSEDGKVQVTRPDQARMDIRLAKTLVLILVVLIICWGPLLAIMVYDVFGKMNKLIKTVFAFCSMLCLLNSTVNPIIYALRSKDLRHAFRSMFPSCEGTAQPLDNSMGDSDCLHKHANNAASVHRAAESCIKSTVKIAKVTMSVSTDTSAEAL
- method.notes: Binding assay, cannabinoid CB1 receptor ([3H]-CP-55,940 displacement)
- Design: expressed in transfected cells; host or cells: SK-N-MC cells, pcDNA3 CB-1 (human), semi-purified membranes
- conditions.used: test concentration 0.2 μM (superscript a); read-out: CB1 binding percent inhibition
Exercise: for every item that follows, state its recorded inhibition at 0.2 µM.
Report the value in % with no unit label.

Reported inhibition at 0.2 µM for human CB1 receptor (Homo sapiens, UniProt P21554), given COC[C@H]1CCCN1NC(=O)c1nn(-c2ccc(Cl)cc2Cl)c2c1CS(=O)(=O)C/C2=C\c1ccc(F)cc1 ?
55

Please state recorded inhibition at 0.2 µM (tested on human CB1 receptor (Homo sapiens, UniProt P21554)) of O=C(NN1CCCCC1)c1nn(-c2ccc(Cl)cc2)c2c1CS(=O)(=O)C/C2=C\c1ccc(F)cc1
66

For the record O=C(NNc1ccc(Cl)cc1Cl)c1nn(-c2ccc(Cl)cc2Cl)c2c1CSC/C2=C\c1ccc(F)cc1 , what value of inhibition at 0.2 µM is listed for human CB1 receptor (Homo sapiens, UniProt P21554)?
66

Hello, I am looking for reported inhibition at 0.2 µM with human CB1 receptor (Homo sapiens, UniProt P21554) for O=C(NN1CCN(CCO)CC1)c1nn(-c2ccc(Cl)cc2Cl)c2c1CSC/C2=C\c1ccc(F)cc1 . Could you help?
6

----------
Consider the following compounds; for each one, report its IC50.
- assayed.system: human CB1 receptor (Homo sapiens, UniProt P21554)
- method.notes: Binding assay, cannabinoid CB1 receptor ([3H]-CP-55,940 displacement)
- Design: expressed in transfected cells; host or cells: SK-N-MC cells, pcDNA3 CB-1 (human), semi-purified membranes
Give just the numeric value; nM need not be written.

Which IC50 is reported for this compound? CC12CCC(C1)C(C)(C)C2NC(=O)c1nn(Cc2ccccc2)c2c1CSCC2 (stereo not shown)
5

Which value of IC50 has been reported for C[C@@H](NC(=O)c1c2c(nn1-c1ccc(Cl)cc1Cl)/C(=C/c1ccc(F)cc1)CSC2)C1CCCCC1 in the records?
74

Dear colleague, I am looking for the recorded IC50 of the following compound: C[C@@H](NC(=O)c1nn(Cc2ccccc2)c2c1CSCC2)c1ccccc1
160

# get_value(readout='IC50', item= C[C@@H](NC(=O)c1nn(-c2ccc(Cl)cc2Cl)c2c1CS(=O)(=O)C/C2=C\c1ccc(F)cc1)c1ccccc1 )
4

----------
Would you mind telling me the reported IC50 of each entry?
- assayed.system: human CB1 receptor (Homo sapiens)
- method.notes: Binding assay, cannabinoid CB1 receptor ([3H]-CP-55,940 displacement)
- Parameters: expressed in transfected cells; host or cells: SK-N-MC cells, pcDNA3 CB-1 (human), semi-purified membranes
The reply should contain only the number, in nM.

// returns reported IC50 for input O=C(NN1CC2CCCC2C1)c1nn(-c2ccc(Cl)cc2Cl)c2c1CSC/C2=C\c1ccc(F)cc1 (stereo not shown)
11

Request the reported IC50 associated with O=C(NN1CCCCC1)c1nn(-c2ccc(Cl)cc2Cl)c2c1CSC/C2=C\c1ccc(F)cc1
34

Item under review: O=C(NN1CC2CCCC2C1)c1nn(-c2ccc(Cl)cc2Cl)c2c1CS(=O)(=O)C/C2=C\c1ccc(Cl)o1 (stereo not shown) . Reported IC50?
48

// query IC50 value for entry O=C(N[C@@H]1c2ccccc2C[C@@H]1O)c1nn(-c2ccc(Cl)cc2Cl)c2c1CS(=O)(=O)C/C2=C\c1ccc(F)cc1
23

Fill in the blank: the reported IC50 of O=C(N[C@H]1c2ccccc2C[C@H]1O)c1nn(-c2ccc(Cl)cc2Cl)c2c1CSC/C2=C\c1ccc(F)cc1 is ____.
42

Form field: reported IC50 of O=C(NN1CC2CCCC2C1)c1nn(-c2ccc(Cl)cc2)c2c1CS(=O)(=O)C/C2=C\c1ccc(F)cc1 (stereo not shown)
68

Which value of IC50 has been reported for O=C(NN1CCCCC1)c1nn(-c2ccc(Cl)cc2Cl)c2c1CS(=O)(=O)C/C2=C\c1ccc(F)cc1 in the records?
32

----------
- assayed.system: human CB1 receptor (Homo sapiens, UniProt P21554)
- method.notes: Binding assay, cannabinoid CB1 receptor ([3H]-CP-55,940 displacement)
- Set-up: expressed in transfected cells; host or cells: SK-N-MC cells, pcDNA3 CB-1 (human), semi-purified membranes
- conditions.used: test concentration 0.2 μM (superscript a); read-out: CB1 binding percent inhibition
Would you mind telling me the reported inhibition at 0.2 µM of each entry?
Please reply with the bare figure in % and do not write the unit itself.

What reported inhibition at 0.2 µM corresponds to O=C(c1nn(-c2ccc(Cl)cc2Cl)c2c1CSC/C2=C\c1ccc(F)cc1)N1CCCCC1 on human CB1 receptor (Homo sapiens, UniProt P21554)?
52

Recall the recorded inhibition at 0.2 µM for C[C@@H](NS(=O)(=O)/C=C/c1nn(-c2ccc(F)cc2F)c2c1CS(=O)(=O)CC2Cc1cccc(F)c1)C1CCCCC1 (stereo partly drawn) with human CB1 receptor (Homo sapiens, UniProt P21554) and state it.
41

Lab request: please report inhibition at 0.2 µM under test system human CB1 receptor (Homo sapiens, UniProt P21554) for O=C(c1nn(-c2ccc(Cl)cc2)c2c1CS(=O)(=O)C/C2=C\c1ccc(F)cc1)N1CCCCC1
51

Write down the reported inhibition at 0.2 µM of CCOC(=O)[C@@H]1C2CCC(C2)[C@@H]1NC(=O)c1nn(-c2ccc(F)cc2F)c2c1CS(=O)(=O)C[C@H]2Cc1cccc(F)c1 (stereo partly drawn) , test system: human CB1 receptor (Homo sapiens, UniProt P21554).
50

Form entry - test system: human CB1 receptor (Homo sapiens, UniProt P21554); read-out: inhibition at 0.2 µM; compound: O=C(NN1CC2CCCC2C1)c1nn(-c2ccc(Cl)cc2Cl)c2c1CS(=O)(=O)C/C2=C\c1ccc(F)cc1 (stereo not drawn)
76

Return inhibition at 0.2 µM measured with human CB1 receptor (Homo sapiens, UniProt P21554) given this compound: CCOC(=O)[C@@H]1C2CCC(C2)[C@@H]1NC(=O)c1nn(-c2ccc(F)cc2F)c2c1CS(=O)(=O)C[C@@H]2Cc1cccc(F)c1 (stereo partly drawn)
33

What is its inhibition at 0.2 µM for human CB1 receptor (Homo sapiens, UniProt P21554)? Entry: O=S1(=O)Cc2c(/C=C/S(=O)(=O)NN3CCOCC3)nn(-c3ccc(F)cc3F)c2C(Cc2cccc(F)c2)C1 (stereo not drawn)
3

Provide the documented inhibition at 0.2 µM with human CB1 receptor (Homo sapiens, UniProt P21554) as the system for O=C(NN1CCCCC1)c1c2c(nn1-c1ccc(Cl)cc1Cl)/C(=C/c1ccc(F)cc1)CSC2
46

Query inhibition at 0.2 µM on human CB1 receptor (Homo sapiens, UniProt P21554) for O=C(NNc1ccc(Cl)cc1Cl)c1nn(-c2ccc(Cl)cc2Cl)c2c1CS(=O)(=O)C/C2=C\c1ccc(F)cc1
55

Could you share what inhibition at 0.2 µM was measured for O=C(NCc1ccccn1)c1nn(-c2ccc(Cl)cc2Cl)c2c1CSC/C2=C\c1ccc(F)cc1 , tested on human CB1 receptor (Homo sapiens, UniProt P21554)?
48

I'm curious: which inhibition at 0.2 µM was measured for O=C(NN1CCCCCC1)c1nn(-c2ccc(Cl)cc2Cl)c2c1CS(=O)(=O)C/C2=C\c1ccc(F)cc1 tested on human CB1 receptor (Homo sapiens, UniProt P21554)?
92

Item: C[C@H](NC(=O)c1nn(-c2ccc(Cl)cc2Cl)c2c1C[S+]([O-])C/C2=C\c1ccc(F)cc1)c1ccccc1 (stereo partly drawn) Test system: human CB1 receptor (Homo sapiens, UniProt P21554) Read-out: inhibition at 0.2 µM Value: ?
45

Under human CB1 receptor (Homo sapiens, UniProt P21554): inhibition at 0.2 µM value of O=C(NN1CC2CCCC2C1)c1c2c(nn1-c1ccc(Cl)cc1Cl)/C(=C/c1ccc(F)cc1)CSC2 (stereo not drawn) ?
47

What measured inhibition at 0.2 µM is associated with COC[C@@H]1CCCN1NC(=O)c1nn(-c2ccc(Cl)cc2Cl)c2c1CSC/C2=C\c1ccc(F)cc1 on human CB1 receptor (Homo sapiens, UniProt P21554)?
61

// fetch human CB1 receptor (Homo sapiens, UniProt P21554) inhibition at 0.2 µM for C[C@H](NS(=O)(=O)/C=C/c1n[nH]c2c1CSCC2Cc1cccc(F)c1)c1ccccc1 (stereo partly drawn)
24

----------
- assayed.system: human CB-2 receptor (Homo sapiens)
- Construct: expressed in transfected cells; host or cells: SK-N-MC cells, pcDNA3 CB-2 (human), semi-purified membranes
- Sequence (P34972 whole entry): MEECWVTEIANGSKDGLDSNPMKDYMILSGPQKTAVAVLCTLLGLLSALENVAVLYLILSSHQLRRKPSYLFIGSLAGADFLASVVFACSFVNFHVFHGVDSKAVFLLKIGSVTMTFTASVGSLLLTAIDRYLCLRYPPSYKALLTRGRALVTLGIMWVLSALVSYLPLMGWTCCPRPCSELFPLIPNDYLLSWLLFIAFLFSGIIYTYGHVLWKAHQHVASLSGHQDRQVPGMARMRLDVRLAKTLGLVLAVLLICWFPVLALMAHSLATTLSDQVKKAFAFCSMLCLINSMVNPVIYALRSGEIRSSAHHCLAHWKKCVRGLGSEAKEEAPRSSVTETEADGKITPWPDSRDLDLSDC
- method.notes: Binding assay, cannabinoid CB2 receptor ([3H]-CP-55,940 displacement)
- conditions.used: test concentration 1 μM (superscript b); read-out: CB2 binding percent inhibition
assay.endpoint: inhibition at 1 µM (%)
State just the number; it will be interpreted in %.

Recall the recorded inhibition at 1 µM for C[C@@H](NS(=O)(=O)/C=C/c1c2c(nn1Cc1ccccc1)CCS(=O)(=O)C2)c1ccccc1 with human CB-2 receptor (Homo sapiens) and state it.
0

Please provide the recorded inhibition at 1 µM for C[C@@H](NS(=O)(=O)/C=C/c1c2c(nn1Cc1ccccc1)CCS(=O)(=O)C2)C1CCCCC1 , tested on human CB-2 receptor (Homo sapiens).
0

Item: C[C@@H](NS(=O)(=O)/C=C/c1nn(Cc2ccccc2)c2c1CS(=O)(=O)CC2)c1ccccc1 Test system: human CB-2 receptor (Homo sapiens) Read-out: inhibition at 1 µM Value: ?
6

For human CB-2 receptor (Homo sapiens), provide inhibition at 1 µM of C[C@@H](NS(=O)(=O)/C=C/c1nn(Cc2ccccc2)c2c1CS(=O)(=O)CC2)C1CCCCC1 please.
0

Notebook entry, human CB-2 receptor (Homo sapiens) assay: inhibition at 1 µM of C[C@@H](NS(=O)(=O)/C=C/c1nn(Cc2ccccc2)c2c1CSCC2)C1CCCCC1 = ?
39

Please tell me: inhibition at 1 µM of C[C@@H](NS(=O)(=O)/C=C/c1c2c(nn1Cc1ccccc1)CCSC2)C1CCCCC1 , system human CB-2 receptor (Homo sapiens)?
0

Test system human CB-2 receptor (Homo sapiens); read-out inhibition at 1 µM; what value for CC(NS(=O)(=O)/C=C/c1c2c(nn1Cc1ccccc1)CC[S+]([O-])C2)c1ccccc1 (stereo not drawn) ?
0

Query for human CB-2 receptor (Homo sapiens): what inhibition at 1 µM does the record show for C[C@H](NS(=O)(=O)/C=C/c1nn(Cc2ccccc2)c2c1CS(=O)(=O)CC2)C1CCCCC1 ?
0

Tell me reported inhibition at 1 µM for C[C@@H](NS(=O)(=O)/C=C/c1c2c(nn1Cc1ccccc1)CCSC2)c1ccccc1 , tested with human CB-2 receptor (Homo sapiens).
0

Short answer please: inhibition at 1 µM, human CB-2 receptor (Homo sapiens), entry C[C@H](NS(=O)(=O)/C=C/c1c2c(nn1Cc1ccccc1)CCS(=O)(=O)C2)C1CCCCC1
24

Can you look up inhibition at 1 µM on human CB-2 receptor (Homo sapiens) for C[C@@H](NC(=O)c1nn(Cc2ccccc2)c2c1CS(=O)(=O)CC2)c1ccccc1 ?
55

API: value(readout= inhibition at 1 µM, system= human CB-2 receptor (Homo sapiens), query= C[C@H](NS(=O)(=O)/C=C/c1nn(Cc2ccccc2)c2c1CS(=O)(=O)CC2)c1ccccc1 )
40

Request body: readout inhibition at 1 µM, system human CB-2 receptor (Homo sapiens), query C[C@@H](NS(=O)(=O)/C=C/c1nn(Cc2ccccc2)c2c1CSCC2)c1ccccc1 . Return the value.
44

Value wanted: inhibition at 1 µM (human CB-2 receptor (Homo sapiens)) of entry C[C@H](NS(=O)(=O)/C=C/c1c2c(nn1Cc1ccccc1)CCSC2)c1ccccc1
9

Fill in the recorded inhibition at 1 µM for this compound, with human CB-2 receptor (Homo sapiens) as test system: C[C@H](NS(=O)(=O)/C=C/c1nn(Cc2ccccc2)c2c1CSCC2)C1CCCCC1
42

Find the measured inhibition at 1 µM: item C[C@H](NS(=O)(=O)/C=C/c1nn(Cc2ccccc2)c2c1CSCC2)c1ccccc1 , target or system human CB-2 receptor (Homo sapiens).
74

GET /values?readout=inhibition at 1 µM&system=human CB-2 receptor (Homo sapiens)&item= C[C@H](NS(=O)(=O)/C=C/c1c2c(nn1Cc1ccccc1)CCS(=O)(=O)C2)c1ccccc1
36

So what inhibition at 1 µM did C[C@H](NS(=O)(=O)/C=C/c1c2c(nn1Cc1ccccc1)CCSC2)C1CCCCC1 get with human CB-2 receptor (Homo sapiens)?
5
